Attribution: ChEMBL document CHEMBL1201862

- Tested on: LOX IMVI
- Protocol: NCI tumour cell line growth inhibition, 48 h
Calls of active or inactive are those of the source. Cut-off read from the data, not from the text of the source: active = GI50 up to about 1.1 µM and inactive = higher.
Quantity: GI50

For orientation, consider the following solved cases.
* CNc1ccc(-c2nc3cc(C)ccc3o2)cc1 | > 100 µM (inactive)
* CN(C)CCCNC(=O)c1cc(NC(=O)c2cc(NC(=O)[C@H]3C[C@@H]3C(=O)Nc3cc(C(=O)Nc4cc(C(=O)NCCCN(C)C)n(C)c4)n(C)c3)cn2C)cn1C | > 100 µM (inactive)
* C/C(=C\COc1cc(O)c2c(c1)C(=O)c1cc(C)cc(O)c1C2=O)CCC1OC1(C)C (stereo not given) | > 100 µM (inactive)
* CCCc1cn2c(/C=N/NC(=N)N)c(-c3ccc([N+](=O)[O-])cc3)nc2s1 | 1.39 µM (inactive)
* CC(C)CC1NC(=O)CCC(NC(=O)C(Cc2ccc(O)cc2)NC(=O)OCc2ccccc2)C(=O)NC(Cc2ccccc2)C(=O)NC(Cc2ccccc2)NC1=O (stereo not given) | > 100 µM (inactive)

Qu. Which GI50 reading was recorded for the compound COc1cc(C2C(Cl)C(=O)N2NC(=O)c2ccccc2O)ccc1O (stereo not given) ?
Ans. > 100 µM (inactive)

Qu. Reported GI50 for Cc1cc(C)c2c(c1)CC1(Cc3cc(C)c(C)cc3C1=O)C2=O (stereo not given) : what is it?
Ans. > 100 µM (inactive)

Qu. Which GI50 reading was recorded for the compound `O=C(NCCCN(CCCCN(CCCNC(=O)c1cc(S(=O)(=O)O)cc(O)c1O)C(=O)c1cc(S(=O)(=O)O)cc(O)c1O)C(=O)c1cc(S(=O)(=O)O)cc(O)c1O)c1cc(S(=O)(=O)O)cc(O)c1O` ?
Ans. 98.4 µM (inactive)

Qu. Dear colleague, I am looking for the recorded GI50 of the following compound: `O=C(O)c1nn(-c2ccc(Cl)cc2)c2c1C(=O)c1ccccc1C2=O`
Ans. > 100 µM (inactive)

Qu. May I ask what GI50 has been recorded for Cc1ccc(S(=O)(=O)NC(=O)NC(Cc2ccc(O)c(O)c2)C(=O)O)cc1 (stereo not given) ?
Ans. > 100 µM (inactive)

* * *

- System: KM12
- Protocol: NCI tumour cell line growth inhibition, 48 h
Activity calls are given as the source filed them. No stated cut-off is given here; in the data, active = GI50 up to about 1.1 µM and inactive = higher.
Quantity: GI50

• COC(=O)[C@@H]1C(=O)O[C@@H](c2ccc(OC)c(OC)c2OC)[C@@H]1C(=O)OC.COC(=O)[C@H]1C(=O)O[C@@H](c2ccc(OC)c(OC)c2OC)[C@@H]1C(=O)OC = > 100 µM (inactive)
• CC(=O)c1c(SCCN2CCCC2)n(-c2ccccc2)c(=S)n(-c2ccccc2)c1=O = 23.2 µM (inactive)
• O=c1ccc2nc3ccc(O)cc3oc-2c1 = 5.6 µM (inactive)
• N#CC(C#N)=c1c(=O)c2c3ccccc3cc3cccc1c32 = 58.7 µM (inactive)
• O=c1[nH]c(=O)n(COCCO)cc1-c1ccccc1 = > 100 µM (inactive)
• Cc1ccc(-c2cc(N)n(-c3nc4c(c(=O)n(C)c(=O)n4C)n3C)n2)cc1 = > 100 µM (inactive)
• C[C@H]1CC[C@@]2(NC1)O[C@H]1C[C@H]3[C@@H]4CC[C@H]5C[C@@H](O)CC[C@]5(C)[C@H]4CC[C@]3(C)[C@H]1[C@@H]2C = 71.8 µM (inactive)
• CNc1ccc(-c2nc3cc(C)ccc3o2)cc1 = > 100 µM (inactive)

Qu. What GI50 value was documented for this molecule, `O=C(O)c1cccc(S(=O)(=O)NCCO)c1` ?
Ans. > 100 µM (inactive)

Qu. // returns reported GI50 for input CCCCCCCCCC(=O)OCC1OC(n2cc(F)c(=O)[nH]c2=O)C(N)C(OC(=O)CCCCCCCCC)C1O (centres undefined)
Ans. 19.1 µM (inactive)

Qu. I am curious: what GI50 value has been reported for `C[n+]1c(-c2ccc(/C=N/NC(=O)C(=O)N/N=C/c3ccc(-c4cn5ccccc5[n+]4C)cc3)cc2)cn2ccccc21` ?
Ans. > 100 µM (inactive)

Qu. Which GI50 reading was recorded for the molecule `C1=CC=C2NCCC/N=C3/C=CC=CC=C3NCCC/N=C\2C=C1` ?
Ans. > 100 µM (inactive)

Qu. For `O=C(CCc1cccc(O)c1)NCCc1ccc(O)cc1` , what is its reported GI50?
Ans. > 100 µM (inactive)

Qu. Quick check: GI50 of COC(=O)[C@@]12C(=O)C(C)C(=O)[C@]1(C)C(C)=C[C@H]1[C@]3(C=O)CC[C@H](OC(C)=O)C(C)(C)[C@H]3CC[C@@]12C (some centres undefined) ?
Ans. > 100 µM (inactive)

* * *

- System: NCI-H226
- Protocol: NCI tumour cell line growth inhibition, 48 h
Where a name gives a salt, the structure may show the parent alone. Activity calls are given as the source filed them. Cut-off read from the data, not from the text of the source: active = GI50 up to about 1.1 µM and inactive = higher.
Quantity: GI50

• O=C(CN1CCCCC1)c1ccc2[nH]c(=O)oc2c1 = > 100 µM (inactive)
• CN1CCC(CN2c3ccccc3Sc3ccccc32)C1 (stereo unspecified) [METHDILAZINE HYDROCHLORIDE] = 19.5 µM (inactive)
• CCOC(OC1=CCCC1)C(C)[Se]c1ccccc1 (stereo unspecified) = 36.1 µM (inactive)
• COc1ccc(/C(C)=N/OC(=O)c2c(-c3ccccc3Cl)noc2C)cc1CN1CCOCC1 = 88.1 µM (inactive)
• O=C1Nc2cc([N+](=O)[O-])c(Br)cc2C1=O = 18.5 µM (inactive)

We now examine a further compound.
Qu. Identify the measured GI50 of `CNc1ccc(-c2nc3cc(C)ccc3o2)cc1` for NCI-H226.
Ans. 45.3 µM (inactive)

* * *

- System: SK-MEL-2
- Protocol: NCI tumour cell line growth inhibition, 48 h
Activity calls are given as the source filed them. Cut-off read from the data, not from the text of the source: active = GI50 up to about 1.1 µM and inactive = higher.
Quantity: GI50

Worked cases, GI50 given:
* O=c1c(C(c2ccccc2)c2c(O)oc3cc(O)ccc3c2=O)c(O)oc2cc(O)ccc12 | > 100 µM (inactive)
* O=C(CN1C(=O)CC(c2ccccc2)(c2ccccc2)C1=O)N1CCN(CCO)CC1 | > 100 µM (inactive)
* COc1ccc(-c2c(C#N)c(-c3ccc(C)cc3)n(NS(=O)(=O)c3ccccc3)c(=O)c2C#N)cc1 | 50.8 µM (inactive)
* Nc1ncc(Cl)c(NCC2(CO)CC(CCc3ccccc3)C2)n1 (stereo not drawn) | > 100 µM (inactive)
* CC(=O)O/N=C/c1ncccc1OC(C)=O | > 100 µM (inactive)

Qu. I would be grateful if you could share the reported GI50 for `CC(C)[C@@H](C)[C@@]1(C)C[C@@H]1[C@@H](C)[C@H]1CC[C@@H]([C@@H]2CC=C3C[C@@H](O)CC[C@]3(C)C2=O)[C@]1(C)CCO` .
Ans. 18.3 µM (inactive)

Qu. Which GI50 is reported for this compound? `CCN(CC)CCCNc1ccc2nnn3c4ccc(O)cc4c(=O)c1c23`
Ans. 15.1 µM (inactive)

Qu. Returns the measured GI50 for the input compound. Input: `Cc1ccccc1NC(=O)Cc1csc(N/N=C2\C(=O)Nc3ccccc32)n1`
Ans. 44.6 µM (inactive)

Qu. What does the data say about its GI50? Entry: O=C1CC2Sc3ccccc3N=C2N1c1ccc(Cl)cc1Cl (stereo not drawn)
Ans. 46.6 µM (inactive)

Qu. // lookup GI50 for `Cc1ccc(Nc2nc(O)c3[nH]cnc3n2)cc1CO`
Ans. 16.6 µM (inactive)

Qu. Record request: GI50 value, item CN1N=C2c3ccccc3CC[C@H]2C1c1cccc(O)c1 (stereo partly drawn)
Ans. > 100 µM (inactive)

Qu. I'd like to know its GI50. The compound in question is `CNc1ccc(-c2nc3cc(C)ccc3o2)cc1`
Ans. > 100 µM (inactive)

Qu. Which GI50 is listed for CC1(C)[C@@H]2C[C@H]1C(Cc1ccc(C[C@H]3c4cc(-c5ccccn5)ncc4[C@H]4C[C@@H]3C4(C)C)cc1)c1cc(-c3ccccn3)ncc12 (stereo partly drawn) ?
Ans. 7.38 µM (inactive)

* * *

- Tested on: NCI-H460
- Protocol: NCI tumour cell line growth inhibition, 48 h
The source made the active and inactive calls. No stated cut-off is given here; in the data, active = GI50 up to about 1.1 µM and inactive = higher.
Hello, when you answer, please use one of the following outcomes: active, inactive

Look over these answered cases.
- CCOC(=O)C1(C(=O)OCC)CC=C(C)CC12C(=O)Nc1ccccc12 (centres undefined): inactive
- CCc1cc(Cc2cc(Cl)c(NC(=O)C(=O)C3NC(=O)NC3=O)c(CC)c2)cc(Cl)c1NC(=O)C(=O)C1NC(=O)NC1=O (centres undefined): inactive
- CCOC(=O)C[C@@H](C)[C@]1(C(=O)OC)CCCC1=O: inactive
- COC(=O)C1Cc2c(n(Cc3ccccc3)c3ccccc23)C(CCC(=O)O)N1C(C)C (centres undefined): inactive
- O=C1Nc2cc([N+](=O)[O-])c(Br)cc2C1=O: inactive
- N#[N+]c1ccccc1Sc1ccc(Cl)cc1: inactive
- COc1cccc2c1C(=O)c1c(O)c3c(c(O)c1C2=O)C[C@@](O)(C(=O)CO)CC3OC1CC(N)C(OC2CCCCO2)C(C)O1 (some centres undefined): active
- COc1cccc2c1CCc1c(-c3ccc(F)cc3)cc(-c3ccc4ccccc4n3)nc1-2: inactive

As a next step, examine the compound that follows.
Qu. Fill in: this test's call for NC(=O)N/N=C(\CC1OC(=O)c2ccccc21)c1ccc([N+](=O)[O-])cc1 (centres undefined) is ___
Ans. inactive
